# Assayed system: T1, PSMA Fab (biotinylated (site not stated))
# T1 construct: Biotinylated PSMA Fab captured on neutravidin coated plates in the phage ELISA; also called Anti-PSMA Fab; 006 PSMA Fab
# Experimental protocol: phage ELISA, captured anti-PSMA Fab pre-incubated with PSMA antigen as competitor, anti-M13 HRP detection
Where no end group is shown, it is not given here.
# Phage binding ELISA signal, Anti-PSMA Fab in presence of PSMA antigen per record follows
A bare number is all that is needed in reply.

For record QTPVCIPEWMCTGF (cysteine pairing not given here; also: peptide displayed as fusion to phage pIII, Clonal phage of the peptide-180 optimisation library, tested as crude phage supernatant; not shown: bacteriophage pIII coat protein to which the peptide is fused for display) [Phage-2966] the listed Phage binding ELISA signal, Anti-PSMA Fab in presence of PSMA antigen is 0.091
